- system-tested: JAK2 (Homo sapiens, UniProt O60674)
- Sequence (O60674 whole entry, species assumed): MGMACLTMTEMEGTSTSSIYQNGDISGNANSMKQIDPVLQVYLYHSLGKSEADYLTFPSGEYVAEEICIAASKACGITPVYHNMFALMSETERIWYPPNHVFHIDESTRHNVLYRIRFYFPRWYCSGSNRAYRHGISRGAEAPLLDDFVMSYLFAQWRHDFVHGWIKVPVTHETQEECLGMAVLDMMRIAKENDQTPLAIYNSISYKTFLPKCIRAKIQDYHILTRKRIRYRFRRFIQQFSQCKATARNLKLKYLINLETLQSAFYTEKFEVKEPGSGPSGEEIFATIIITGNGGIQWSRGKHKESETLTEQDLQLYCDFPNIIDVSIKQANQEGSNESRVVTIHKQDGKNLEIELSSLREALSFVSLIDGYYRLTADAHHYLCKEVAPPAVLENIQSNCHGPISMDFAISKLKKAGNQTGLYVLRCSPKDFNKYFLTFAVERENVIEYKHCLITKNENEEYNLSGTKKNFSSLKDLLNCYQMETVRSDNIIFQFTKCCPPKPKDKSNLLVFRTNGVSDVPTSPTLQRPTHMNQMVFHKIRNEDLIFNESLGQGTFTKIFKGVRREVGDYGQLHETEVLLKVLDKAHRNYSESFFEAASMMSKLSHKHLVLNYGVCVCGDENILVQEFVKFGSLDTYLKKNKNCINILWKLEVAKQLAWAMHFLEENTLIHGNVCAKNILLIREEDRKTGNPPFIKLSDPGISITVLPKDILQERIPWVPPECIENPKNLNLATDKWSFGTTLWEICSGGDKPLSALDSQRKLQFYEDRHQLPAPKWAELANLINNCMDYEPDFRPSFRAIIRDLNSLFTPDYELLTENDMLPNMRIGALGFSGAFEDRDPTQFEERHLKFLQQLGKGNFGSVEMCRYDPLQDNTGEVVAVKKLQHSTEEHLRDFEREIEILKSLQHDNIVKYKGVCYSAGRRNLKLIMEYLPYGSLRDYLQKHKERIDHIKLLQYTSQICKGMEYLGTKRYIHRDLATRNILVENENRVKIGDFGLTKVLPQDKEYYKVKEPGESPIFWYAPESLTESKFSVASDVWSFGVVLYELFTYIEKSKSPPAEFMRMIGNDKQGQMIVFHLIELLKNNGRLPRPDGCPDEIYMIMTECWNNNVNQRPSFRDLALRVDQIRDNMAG
- procedure-text: JAK2 inhibition assay (radioactive enzyme assay, as for JAK3)
- Type: biochemical
- experimental-conditions: average Ki if more than one value determined
Quick reference: Ki of the listed items.

Sample answers from the record:
>  <test-smiles>
C=C/C=C/C(=O)Nc1cnc2[nH]cc(-c3cccc(N4C[C@@H](C)N(C(C)=O)[C@@H](C)C4)n3)c2c1

>  <system-tested>
JAK2 (Homo sapiens, UniProt O60674)

>  <Ki>
< 500 nM

$$$$
>  <test-smiles>
CC(=O)N1[C@H](C)CN(c2cccc(-c3c[nH]c4ncc(C(=O)N5CCOCC5)cc34)n2)C[C@@H]1C

>  <system-tested>
JAK2 (Homo sapiens, UniProt O60674)

>  <Ki>
500 to 5000 nM

$$$$

Query (molecule): C[C@H](Nc1nc(-c2c[nH]c3ncc(Cl)cc23)ncc1F)C(=O)NCCN1CCNC1=O ; field requested: Ki
500 to 5000 nM

* * *

- system-tested: full length Aurora-A (AA 1-403) (Homo sapiens)
- Sequence (O14965 1-403): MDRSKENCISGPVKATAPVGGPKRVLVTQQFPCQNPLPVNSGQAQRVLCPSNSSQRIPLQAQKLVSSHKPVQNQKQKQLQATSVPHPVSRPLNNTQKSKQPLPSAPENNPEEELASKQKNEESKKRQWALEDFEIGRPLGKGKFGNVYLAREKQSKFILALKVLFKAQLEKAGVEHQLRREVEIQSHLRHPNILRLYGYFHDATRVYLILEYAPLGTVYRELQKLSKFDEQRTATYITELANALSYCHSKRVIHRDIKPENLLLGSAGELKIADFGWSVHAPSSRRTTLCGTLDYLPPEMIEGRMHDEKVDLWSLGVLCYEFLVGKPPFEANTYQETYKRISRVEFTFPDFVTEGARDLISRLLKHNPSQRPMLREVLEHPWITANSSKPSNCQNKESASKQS
pKi: −log10 of the molar value.
Reported values of pKi for individual entries

Could you tell me which pKi is on file for COc1ccc(CNc2cccc(-c3c[nH]c4ncc(Cl)cc34)n2)cc1 ?
> 6.30

Requested read-out: pKi. Entry: C[C@H](Nc1nc(-c2c[nH]c3ncc(Cl)cc23)ncc1N)c1ccc(F)cc1
> 6.30

Consider the compound CNC(=O)[C@H](COC)Nc1nc(-c2c[nH]c3ncc(Cl)cc23)ncc1F and give its measured pKi.
> 6.30

I would be grateful if you could share the reported pKi for CNC(=O)[C@H](CO)Nc1nc(-c2c[nH]c3ncc(Cl)cc23)ncc1F .
> 6.30

// pKi lookup, key: CC(=O)N1[C@H](C)CN(c2cccc(-c3c[nH]c4ncc(OCCN5CCOCC5)cc34)n2)C[C@@H]1C
5.30 to 6.30
